measurement-target: Gamma-hydroxybutyrate receptor (Rattus norvegicus, UniProt Q6RY99)
Sequence (Q6RY99 whole entry): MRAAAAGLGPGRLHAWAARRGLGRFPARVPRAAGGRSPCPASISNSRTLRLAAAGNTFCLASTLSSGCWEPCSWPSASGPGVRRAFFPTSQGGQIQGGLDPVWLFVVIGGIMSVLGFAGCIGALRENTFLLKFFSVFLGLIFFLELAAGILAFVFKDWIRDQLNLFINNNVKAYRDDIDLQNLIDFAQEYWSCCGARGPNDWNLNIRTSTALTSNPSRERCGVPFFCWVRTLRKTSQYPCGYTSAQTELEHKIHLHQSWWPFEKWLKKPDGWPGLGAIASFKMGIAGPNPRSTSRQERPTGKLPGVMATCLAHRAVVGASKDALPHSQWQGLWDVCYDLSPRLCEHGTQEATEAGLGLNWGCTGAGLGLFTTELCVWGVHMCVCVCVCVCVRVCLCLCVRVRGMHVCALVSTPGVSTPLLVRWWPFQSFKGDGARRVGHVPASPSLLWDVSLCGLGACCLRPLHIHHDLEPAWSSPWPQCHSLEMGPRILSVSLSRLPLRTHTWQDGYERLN
pKi: −log10 of the molar value.
value-type: pKi

molecule=O=C(O)CCCCO recorded_measurement="< 5.00"
molecule=CC(C)(O)CCC(=O)O recorded_measurement="< 5.00"
molecule="O=C(O)/C=C1/CCCc2ccccc2C1O (stereo not drawn)" recorded_measurement=5.74
